Reference source for all entries: patent US12264173B2

Tested on: RSV strain A2
MEASUREMENT PROTOCOL: microbe, parasite or virus in culture
Format: cell-based
CONDITION SET: Table 3; HEp-2 cells, RSV A2, 4 days; read-out: RSV HEp-2 EC50
RECORDED ENDPOINT: EC50 (nM)
Give the number; nM is assumed, so skip it.

Can you look up the measured EC50 of CCCCOC(=O)C(C)NP(=O)(OCC1(C#N)OC(c2ccc3c(N)ncnn23)C(OC(=O)C(C)C)C1OC(=O)C(C)C)Oc1ccccc1 (single isomer, unassigned) [Example 226] for me?
9

Queued: CCCOC(=O)[C@H](C)NP(=O)(OC[C@@]1(C#N)O[C@@H](c2ccc3c(N)ncnn23)[C@H](OC(=O)C(C)C)[C@@H]1OC(=O)C(C)C)Oc1ccccc1 (single isomer, unassigned) [Example 192]
29

Would you kindly repeat that for CC(=O)O[C@H]1[C@H](c2ccc3c(N)ncnn23)O[C@](C#N)(COP(=O)(N[C@@H](C)C(=O)OC2CCOCC2)Oc2ccccc2)[C@H]1OC(C)=O (single isomer, unassigned) [Example 165] ?
405
